Give pIC50 for every item shown.
TARGET_SYSTEM: UniProt:R9ULB8
Sequence (R9ULB8 entry or part of it): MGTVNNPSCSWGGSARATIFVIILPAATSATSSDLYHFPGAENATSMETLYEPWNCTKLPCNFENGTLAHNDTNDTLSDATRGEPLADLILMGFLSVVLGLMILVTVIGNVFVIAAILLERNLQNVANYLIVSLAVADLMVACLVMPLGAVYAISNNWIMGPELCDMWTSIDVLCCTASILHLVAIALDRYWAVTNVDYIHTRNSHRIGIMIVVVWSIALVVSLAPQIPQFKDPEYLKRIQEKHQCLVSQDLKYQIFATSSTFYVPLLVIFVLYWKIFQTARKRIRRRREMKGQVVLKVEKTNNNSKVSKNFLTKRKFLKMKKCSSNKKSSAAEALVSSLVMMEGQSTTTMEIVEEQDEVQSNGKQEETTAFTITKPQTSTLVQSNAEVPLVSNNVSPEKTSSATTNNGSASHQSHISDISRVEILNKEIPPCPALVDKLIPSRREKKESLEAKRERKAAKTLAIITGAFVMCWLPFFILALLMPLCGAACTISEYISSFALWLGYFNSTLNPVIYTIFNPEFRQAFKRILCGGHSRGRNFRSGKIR
METHOD_DESCRIPTION: Aequorin-luminescence assay, antagonist inhibition of 5-HT mediated activation of Trica5-HT1 in CHO-WTA11 cells
Assay type: cell-based
TEST_CONTEXT: logIC50 (mean ± SEM), inhibition of 5-HT (100 nM) mediated activation, CHO-WTA11 cells; given as negative log values
Method: General binding studies were performed in Chinese hamster ovary (CHO) WTA11 cells stably coexpressing apoaequorin and the promiscuous Gα16. This allowed us to measure the pharmacology independent of the downstream signaling. […] The transfected CHO cells were detached with phosphate buffered saline (PBS) containing 0.2% EDTA and collected in DMEM/F-12 (without phenol red, with L-glutamine and 10 mM HEPES) (Gibco). The amount of viable cells was determined using the NucleoCounter NC-100+TM (Chemometic). […]
Structures can show the parent of a compound that is named as a salt.
Answers are plain numbers, as −log10 of the molar value.

# annotated cases, reported pIC50 shown
{"COMPOUND": "CC[C@@H](CO)NC(=O)[C@@H]1C=C2c3cccc4c3c(cn4C)C[C@H]2N(C)C1 [methysergide, methysergide maleate]", "pIC50": 4.47}
{"COMPOUND": "CC(C)(C)[C@]1(O)CCN2C[C@H]3c4ccccc4CCc4cccc(c43)[C@@H]2C1 [butaclamol, (+)-butaclamol hydrochloride]", "pIC50": 3.69}

Turning now to a further record.
// pIC50 lookup, compound = COc1cc2nc(N3CCN(C(=O)c4ccco4)CC3)nc(N)c2cc1OC [prazosin, prazosin hydrochloride] , result: 5.86
